Consider the following molecules and their measured EC50 readings.
Tgt: human mGluR2 receptor (Homo sapiens)
Construct: expressed in transfected cells; host or cells: CHO cells
Sequence (Q14416 19-872): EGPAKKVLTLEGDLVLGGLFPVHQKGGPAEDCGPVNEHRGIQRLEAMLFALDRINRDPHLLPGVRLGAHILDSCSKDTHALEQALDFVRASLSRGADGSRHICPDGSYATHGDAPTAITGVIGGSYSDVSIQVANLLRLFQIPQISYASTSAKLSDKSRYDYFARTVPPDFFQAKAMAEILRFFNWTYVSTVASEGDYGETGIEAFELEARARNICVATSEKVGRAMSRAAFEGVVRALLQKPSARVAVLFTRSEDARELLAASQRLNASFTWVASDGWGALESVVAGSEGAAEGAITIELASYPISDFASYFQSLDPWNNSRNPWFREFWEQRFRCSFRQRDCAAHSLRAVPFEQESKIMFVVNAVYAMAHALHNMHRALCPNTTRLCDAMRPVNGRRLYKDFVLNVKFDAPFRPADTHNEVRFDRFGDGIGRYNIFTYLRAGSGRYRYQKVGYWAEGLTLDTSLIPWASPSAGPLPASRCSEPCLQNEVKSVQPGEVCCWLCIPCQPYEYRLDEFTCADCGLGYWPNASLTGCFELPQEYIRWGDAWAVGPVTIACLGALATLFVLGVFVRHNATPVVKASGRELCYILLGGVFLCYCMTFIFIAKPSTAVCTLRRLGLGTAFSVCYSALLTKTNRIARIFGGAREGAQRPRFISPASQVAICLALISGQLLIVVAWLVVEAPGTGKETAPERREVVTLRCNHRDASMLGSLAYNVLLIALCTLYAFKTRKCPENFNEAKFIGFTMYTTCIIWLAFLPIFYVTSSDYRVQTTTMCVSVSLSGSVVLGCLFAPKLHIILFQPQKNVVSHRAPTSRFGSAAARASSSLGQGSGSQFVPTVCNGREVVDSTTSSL
Experimental details: [35S]GTPγS binding assay (PAM assay) using membranes from cells transfected with the human mGluR2 receptor
Format: biochemical
Setup conditions: membranes of CHO cells with human mGluR2; glutamate at predetermined EC25 concentration; averages of duplicate values of 11-concentration response curves; read-out: GTPγS - hR2 PAM pEC50 (converted)
Value kind: EC50 (nM)

Molecule	Tgt	Value kind	Reported
CCc1cnc2c(C#N)c(-c3ccc(Oc4ccnc(C)c4)cc3)ccn12	human mGluR2 receptor (Homo sapiens)	EC50	1320
Fc1ccccc1C1CCN(Cc2ccn3c(CC(F)(F)F)cnc3c2Cl)CC1	human mGluR2 receptor (Homo sapiens)	EC50	437
N#Cc1c(-c2ccc(C(F)c3ccccc3)cc2)ccn2c(CC(F)(F)F)cnc12 (centres unmarked)	human mGluR2 receptor (Homo sapiens)	EC50	257
N#Cc1c(N2CCN(c3ccc(F)cc3F)CC2)ccn2c(CC(F)(F)F)cnc12	human mGluR2 receptor (Homo sapiens)	EC50	275
N#Cc1c(-c2ccc(NC3CC3)c(F)c2)ccn2c(CC(F)(F)F)cnc12	human mGluR2 receptor (Homo sapiens)	EC50	6310
N#Cc1c(N2CCC(c3ccccc3)CC2)ccn2c(C3CC3)cnc12	human mGluR2 receptor (Homo sapiens)	EC50	676
CC(C)(O)C1CCN(c2ccc(-c3ccn4c(CC(F)(F)F)cnc4c3C#N)cc2)CC1	human mGluR2 receptor (Homo sapiens)	EC50	676
N#Cc1c(N2CCc3c(oc4ccccc34)C2)ccn2c(CC(F)(F)F)cnc12	human mGluR2 receptor (Homo sapiens)	EC50	174
N#Cc1c(-c2ccc(N[C@H]3CC[C@@H](O)CC3)c(Cl)c2)ccn2c(CC(F)(F)F)cnc12	human mGluR2 receptor (Homo sapiens)	EC50	186
N#Cc1c(N2CCC(c3ccccc3)CC2)ccn2c(-c3ccccc3)cnc12	human mGluR2 receptor (Homo sapiens)	EC50	398
O[C@H]1CC[C@H](Nc2ccc(-c3ccn4c(CC(F)(F)F)cnc4c3Cl)cc2Cl)CC1	human mGluR2 receptor (Homo sapiens)	EC50	155
N#Cc1c(CN2CCC(F)(c3ccccc3)CC2)ccn2c(CC(F)(F)F)cnc12	human mGluR2 receptor (Homo sapiens)	EC50	1290
N#Cc1c(-c2ccc(Oc3ccccc3F)cc2)ccn2c(CC(F)(F)F)cnc12	human mGluR2 receptor (Homo sapiens)	EC50	105
N#Cc1c(N2CCC3(CC2)OCc2ccccc23)ccn2c(CC(F)(F)F)cnc12	human mGluR2 receptor (Homo sapiens)	EC50	97.7
N#Cc1c(N2CCC(c3cccc(F)c3OCCF)CC2)ccn2c(CC(F)(F)F)cnc12	human mGluR2 receptor (Homo sapiens)	EC50	57.5
Cc1c(N2CCC(c3ccccc3)CC2)ccn2c(CC(F)(F)F)cnc12	human mGluR2 receptor (Homo sapiens)	EC50	1550
N#Cc1c(N2CCC(c3ccccc3CCF)CC2)ccn2c(CC(F)(F)F)cnc12	human mGluR2 receptor (Homo sapiens)	EC50	63.1
